Entry source: PubChem BioAssay (EPA / NIEHS)

target.desc: Hypoxia-inducible factor 1-alpha (Homo sapiens) (UniProt Q16665)
Sequence (Q16665 whole entry, looked up): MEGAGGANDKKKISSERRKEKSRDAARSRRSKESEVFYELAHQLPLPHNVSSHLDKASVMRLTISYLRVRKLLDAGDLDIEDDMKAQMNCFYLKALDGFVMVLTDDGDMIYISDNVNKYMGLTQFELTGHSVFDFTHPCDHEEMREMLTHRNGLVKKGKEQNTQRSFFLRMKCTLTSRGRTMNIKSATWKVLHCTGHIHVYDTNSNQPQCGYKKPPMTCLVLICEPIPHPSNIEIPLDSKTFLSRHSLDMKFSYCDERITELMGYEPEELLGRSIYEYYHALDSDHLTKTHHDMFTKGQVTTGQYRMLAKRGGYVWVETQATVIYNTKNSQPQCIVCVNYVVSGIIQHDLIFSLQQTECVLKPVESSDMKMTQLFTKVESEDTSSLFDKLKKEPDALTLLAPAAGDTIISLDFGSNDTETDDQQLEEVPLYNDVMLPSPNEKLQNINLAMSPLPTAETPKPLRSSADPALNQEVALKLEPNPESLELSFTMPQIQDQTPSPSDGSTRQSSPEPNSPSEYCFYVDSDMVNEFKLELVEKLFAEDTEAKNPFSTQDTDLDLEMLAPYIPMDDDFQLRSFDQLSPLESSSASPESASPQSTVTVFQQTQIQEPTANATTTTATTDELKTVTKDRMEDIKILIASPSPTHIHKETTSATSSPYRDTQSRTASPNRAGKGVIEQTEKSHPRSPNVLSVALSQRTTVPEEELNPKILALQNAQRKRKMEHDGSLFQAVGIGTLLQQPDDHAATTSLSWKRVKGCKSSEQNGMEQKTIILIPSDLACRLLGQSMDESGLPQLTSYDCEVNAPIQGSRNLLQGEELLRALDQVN
protocol: ATG_HIF1a_CIS: Attagene CIS-FACTORIAL HepG2 Assay for human Hypoxia Inducible Factor 1 (HIF1A) (AID 2282951)
setup.conditions: HepG2 Attagene cis-factorial HIF1a reporter transcription; actives raise or lower the signal
Protocol: ATG_CIS is a cell-based, multiplexed-readout assay that uses HepG2, a human liver cell line, with measurements taken at 24 hours after chemical dosing in a 24-well plate.ATG_HIF1a_CIS is one of 52 assay component(s) measured or calculated from the ATG_CIS assay. […] This assay endpoint, ATG_HIF1a_CIS, was analyzed with bidirectional fitting relative to DMSO as the negative control and baseline of activity. […]
Calls of active or inactive are those of the source. The calls were made as follows: active = hit-call score of the fitted dose curve at least 0.9, where 1 is the maximum; inactive = score below 0.9.
Returns: one label drawn from true = active, false = inactive

Use these answered entries as a reference point.
1) COC(N)=O	true
2) Oc1ccc(I)cc1	false
3) Cc1ccc(C(=O)Cl)cc1	false
4) CCCCC(CC)COC(=O)c1c(Br)c(Br)c(Br)c(Br)c1C(=O)OCC(CC)CCCC (stereo not given)	false
5) CC(C)(C)c1ccccc1OP(=O)(Oc1ccccc1)Oc1ccccc1	false

What did this assay record as the result for "CCOC(=O)c1ccccc1C(=O)OCC" ? false

Called result for "CCCCc1ccccc1" true

----------
protocol: ATG_CRE_CIS: Attagene CIS-FACTORIAL HepG2 Assay for human cAMP Responsive Element (CRE) binding protein 3 (AID 2282926)
setup.conditions: HepG2 CRE cis-reporter, Attagene multiplexed mRNA; actives raise or lower the signal
Calls of active or inactive are those of the source. Rule for the calls: active = hit-call score of the fitted dose curve at least 0.9, where 1 is the maximum; inactive = score below 0.9.
A correct response names exactly one class from true for active, false for inactive

1. CC1(C)CN=C(NN=C(/C=C/c2ccc(C(F)(F)F)cc2)/C=C/c2ccc(C(F)(F)F)cc2)NC1	true
2. CCCN(CCC)c1c([N+](=O)[O-])cc(C(C)C)cc1[N+](=O)[O-]	false
3. CC(C)CBr	false

Moving on to another compound below.
Would you mind telling me which call this test gave "O=[N+]([O-])c1cc(Cl)ccc1Cl" ? false

----------
Read-out: Transforming Growth Factor (TGFB1), TGFB1 (gene 7040)
protocol: LTEA_HepaRG_TGFB1: Life Technologies and Expression Analysis (LTEA) Assay for Transforming Growth Factor (TGFB1) Transporter using HepaRG (AID 2283533)
setup.conditions: mRNA level, 48 h; actives raise or lower the signal
Active and inactive are the calls of the source. How the source made its calls: active means hit-call score of the fitted dose curve at least 0.9, where 1 is the maximum; inactive means score below 0.9.
experimental.readout: outcome

1) COCCOCCO	inactive
2) O=C(O)C1C(C(=O)O)C2(Cl)C(Cl)=C(Cl)C1(Cl)C2(Cl)Cl (stereo not drawn)	inactive
3) O=[N+]([O-])c1ccc(Cl)c(Cl)c1	inactive

----------
target.desc: Bile acid receptor (Homo sapiens)
protocol: ATG_IR1_CIS: Attagene CIS-FACTORIAL HepG2 Assay for human Nuclear Receptor Subfamily 1 Group H Member 4 (NR1H4), IR1 submotif (AID 2282946)
setup.conditions: IR1 reporter transcription, actives raise or lower the signal
Activity calls are given as the source filed them. How the source made its calls: active means hit-call score of the fitted dose curve at least 0.9, where 1 is the maximum; inactive means score below 0.9.
Your response should consist of one outcome taken from YES = active, NO = inactive

The following compounds have reported results that may help.
1) CC(C)(C)N(NC(=O)c1ccc(Cl)cc1)C(=O)c1ccccc1	NO
2) CCNc1nc(Cl)nc(NC(C)(C)C)n1	NO
3) Cc1c([N+](=O)[O-])cc2c(c1[N+](=O)[O-])C(C)(C)CC2(C)C	NO
4) Cc1cc(C)c(C(=O)P(=O)(c2ccccc2)c2ccccc2)c(C)c1	YES
5) O=C(O)C1C(C(=O)O)C2(Cl)C(Cl)=C(Cl)C1(Cl)C2(Cl)Cl (centres undefined)	NO
6) CCN(CC)c1ccccc1	NO
7) c1ccc2c(c1)sc1ccccc12	NO
8) CCCCC(CC)COC(=O)c1c(Br)c(Br)c(Br)c(Br)c1C(=O)OCC(CC)CCCC (centres undefined)	NO

Lab log entry: CC(Cl)CN(C)C (centres undefined) — outcome as called in the assay? NO

Assay outcome for "O=P(Oc1ccccc1)(Oc1ccccc1)Oc1ccccc1" : what was it? YES

Field: outcome | Entry: "OCC(F)(F)OC(F)(F)C(F)(F)OC(F)(F)CO" NO

Call for entry "CC(C)(C)OOC(C)(C)C" : NO

// param item: "CCOC(=O)c1ccccc1N" ; yields the recorded call NO

# fetch the recorded call for "Oc1ccccc1Br" here NO

// outcome(item) with item = "O=C(O)C(F)(F)C(F)(F)C(=O)O" NO

Hi, sorry to bother you, what did the test record for "CCOP(=O)(O)C(N)=O" ? NO
